biological target: IgE-Tb / FcεRIα-Y131A-AF488 (Homo sapiens, UniProt P01854); assay: IgE-Tb / FcεRIα-Y131A-AF488 FRET assay (protocol for examples 1 to 233); settings: examples 1 to 233: 5 nM IgE-Tb, 25 nM FcεRIα-Y131A-AF488, incubated 2 hours at room temperature; read-out: Y131A FRET IC50 range
Sequence (P01854 1-427 limits assumed, stated change not applied): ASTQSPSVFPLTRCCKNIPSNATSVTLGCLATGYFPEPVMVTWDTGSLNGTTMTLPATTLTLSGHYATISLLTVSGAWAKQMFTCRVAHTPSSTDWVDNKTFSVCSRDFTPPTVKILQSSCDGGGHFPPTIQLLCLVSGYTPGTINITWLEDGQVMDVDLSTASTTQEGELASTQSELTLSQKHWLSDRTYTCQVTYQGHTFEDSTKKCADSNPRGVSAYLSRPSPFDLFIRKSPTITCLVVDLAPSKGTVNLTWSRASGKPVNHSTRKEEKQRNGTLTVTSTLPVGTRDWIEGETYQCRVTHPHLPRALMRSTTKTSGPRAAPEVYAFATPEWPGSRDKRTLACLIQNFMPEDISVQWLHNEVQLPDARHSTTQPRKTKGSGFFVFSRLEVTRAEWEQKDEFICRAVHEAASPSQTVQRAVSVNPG
pIC50: −log10 of the molar value.
pIC50 values by entry
Readout Name: pIC50

CCNC(=O)C1CCCc2c1sc(NC(=O)C1CC1)c2C(=O)NCC1CC1 (stereo not shown) = 4.30 to 5.00
Cc1noc(C2CCc3sc(NC(=O)C4CC4)c(C(=O)NCC4CC4)c3C2)n1 (stereo not shown) = 5.00 to 6.00
O=C(NCC1CC1)c1c(NC(=O)C2CC2)sc2c1CC(C(=O)NC1Cc3ccccc3C1)CC2 (stereo not shown) = > 6.00
C[C@H]1CCc2sc(NC(=O)C3CC3)c(C(=O)NCC3CC3)c21 (single isomer, unassigned) = 4.30 to 5.00

====

biological target: IgE-Tb / FcεRIα-Y131A-AF488 (Homo sapiens, UniProt P01854); test: IgE-Tb / FcεRIα-Y131A-AF488 FRET assay (protocol for examples 1 to 233); details: examples 1 to 233: 5 nM IgE-Tb, 25 nM FcεRIα-Y131A-AF488, incubated 2 hours at room temperature; read-out: Y131A FRET IC50 range
IC50 values by entry
Readout Name: IC50

Cn1cc(-n2cnnc2N[C@H]2CCc3sc(NC(=O)C4CC4)c(C(=O)NCC4CC4)c3C2)cn1 [Example 163] = 1 to 10 µM
CCNc1c(NC2CCc3sc(NC(=O)C4CC4)c(C(=O)NCC4CC4)c3C2)c(=O)c1=O (centres unmarked) [Example 120] = < 1 µM
O=C(NCC1CC1)c1c(NC(=O)C2CC2)sc2c1CC1(CC2)OCCO1 [Example 86] = < 1 µM
O=C(Nc1sc2c(c1S(=O)(=O)N1CCCC1)CCCC2)C1CC1 [Example 20] = 1 to 10 µM
Cc1ccc(N2CC3(CCc4sc(NC(=O)C5CC5)c(C(=O)NCC5CC5)c4C3)OC2=O)cc1 (centres unmarked) [Example 61] = < 1 µM
CON=C(Nc1ccc(C)cc1)NC1CCc2sc(NC(=O)C3CC3)c(C(=O)NCC3CC3)c2C1 (centres unmarked) [Example 168] = < 1 µM
Cc1ccc(NC(=C[N+](=O)[O-])NC2CCc3sc(NC(=O)C4CC4)c(C(=O)NCC4CC4)c3C2)cc1 (centres unmarked) [Example 135] = < 1 µM
COCC(=O)N1CCc2sc(NC(=O)C3CC3)c(C(=O)NCC3CC3)c2C1 [Example 8] = 10 to 50 µM
NS(=O)(=O)c1cccc(NC(=O)C2CCc3sc(NC(=O)C4CC4)c(S(=O)(=O)NCC4CC4)c3C2)c1 (centres unmarked) [Example 33] = < 1 µM
CNC(=O)c1c(NC(=O)C2CC2)sc2c1CCCO2 [Example 2] = 10 to 50 µM
CCNC(=NC#N)N[C@H]1CCc2sc(NC(=O)C3CC3)c(C(=O)NCC3CC3)c2C1 [Example 156] = < 1 µM
O=C(NCC1CC1)c1c(NC(=O)C2CC2)sc2c1C[C@@H](C(F)(F)F)CC2 [Example 67] = < 1 µM
COc1ccc(CCNC(=O)C2CCc3sc(NC(=O)C4CC4)c(C(=O)NCC4CC4)c3C2)cc1 (centres unmarked) [Example 48] = < 1 µM
O=C(NCC1CC1)c1c(NC(=O)C2CC2)sc2c1C[C@@H](Nc1nccn1-c1cccnc1)CC2 [Example 170] = 1 to 10 µM
Cc1ccc(N2C(=O)CN=C2NC2CCc3sc(NC(=O)C4CC4)c(C(=O)NCC4CC4)c3C2)cc1 (centres unmarked) [Example 194] = 1 to 10 µM
O=C(NCC1CC1)c1c(NC(=O)C2CC2)sc2c1CC(C(=O)Nc1cnccn1)CC2 (centres unmarked) [Example 53] = < 1 µM
O=C(NCC1CC1)c1c(NC(=O)C2CC2)sc2c1CC(Nc1nc[nH]n1)CC2 (centres unmarked) [Example 161] = < 1 µM
CCOC(=O)N=C(Nc1ccc(C)cc1)NC1CCc2sc(NC(=O)C3CC3)c(C(=O)NCC3CC3)c2C1 (centres unmarked) [Example 149] = < 1 µM
Cn1nc(C(F)(F)F)cc1Nc1nncn1[C@H]1CCc2sc(NC(=O)C3CC3)c(C(=O)NCC3CC3)c2C1 [Example 221] = < 1 µM
CCNc1nnc(CO)n1C1CCc2sc(NC(=O)C3CC3)c(C(=O)NCC3CC3)c2C1 (centres unmarked) [Example 184] = < 1 µM
O=C1NCc2cc(NC(=O)C3CCc4sc(NC(=O)C5CC5)c(C(=O)NCC5CC5)c4C3)ccc21 (centres unmarked) [Example 41] = < 1 µM
Cc1ccc(NC(=NC#N)NC2CCc3sc(NC(=O)C4CC4)c(S(=O)(=O)NCC4CC4)c3C2)cc1 (centres unmarked) [Example 30] = < 1 µM
CC1(C)CCc2sc(NC(=O)C3CC3)c(C(=O)NCC3CC3)c2C1 [Example 84] = 1 to 10 µM
O=C(NCC1CC1)c1c(NC(=O)C2CCC2)sc2c1CCCC2 [Example 88] = 10 to 50 µM
CC1CCc2sc(NC(=O)C3CC3)c(C(=O)NCC3CC3)c2C1C (centres unmarked) [Example 89] = 1 to 10 µM
O=C(NCC1CC1)c1c(NC(=O)C2CC2)sc2c1CC(C=NO)CC2 (centres unmarked) [Example 58] = 1 to 10 µM
O=C(NCC1CC1)c1c(NC(=O)C2CC2)sc2c1CC(c1cc[nH]n1)CC2 (centres unmarked) [Example 100] = < 1 µM
Cc1nn(C)cc1Nc1nncn1[C@H]1CCc2sc(NC(=O)C3CC3)c(C(=O)NCC3CC3)c2C1 [Example 218] = < 1 µM
CNC(=O)c1c(NC(=O)C2CC2)sc2c1CCSC2 [Example 1] = 1 to 10 µM
O=C(NCC1CC1)c1c(NC(=O)C2CC2)sc2c1CC(Nc1nncn1-c1ccc(F)cc1)CC2 (centres unmarked) [Example 165] = < 1 µM
CCCNC(=O)c1c(NC(=O)C2CC2)sc2c1CC(NC(=O)Nc1ccc(OC(F)(F)F)cc1)CC2 (centres unmarked) [Example 212] = < 1 µM
O=C(NCC1CC1)c1c(NC(=O)C2CC2)sc2c1CC(Nc1nc(=O)cc(C(F)(F)F)[nH]1)CC2 (centres unmarked) [Example 210] = < 1 µM

====

molecular target: IgE-Tb / FcεRIα-Y131A-AF488 (Homo sapiens); assay: IgE-Tb / FcεRIα-Y131A-AF488 FRET assay (protocol for examples 1 to 233); conditions: examples 1 to 233: 5 nM IgE-Tb, 25 nM FcεRIα-Y131A-AF488, incubated 2 hours at room temperature; read-out: Y131A FRET IC50 range
Readout Name: IC50

O=C(NCC1CC1)c1c(NC(=O)C2CC2)sc2c1CC(n1cnnn1)CC2 (stereo not shown) = < 1 µM
CC1CCN(C(=O)c2c(NC(=O)C3CC3)sc3c2CC(NS(C)(=O)=O)CC3)C1 (stereo not shown) = 1 to 10 µM
Cc1cc(NC(=S)N[C@H]2CCc3sc(NC(=O)C4CC4)c(C(=O)NCC4CC4)c3C2)n(C)n1 = < 1 µM
O=C(NCC1CC1)c1c(NC(=O)C2CC2)sc2c1CC(n1cnnc1NCCN1CCOCC1)CC2 (stereo in doubt) = < 1 µM
CC(=O)N1CCCc2c1sc(NC(=O)C1CC1)c2C(=O)NCC1CC1 = 10 to 50 µM
O=C(NCC1CC1)c1c(NC(=O)C2CC2)sc2c1CC(C(=O)Nc1ccncc1)CC2 (stereo not shown) = < 1 µM
O=C(NCC1CC1)c1c(NC(=O)C2CC2)sc2c1CN(C(=O)Cc1ccccc1)CC2 = 10 to 50 µM
CC(C)(C)OC(=O)Nc1cnnn1[C@H]1CCc2sc(NC(=O)C3CC3)c(C(=O)NCC3CC3)c2C1 (stereo in doubt) = < 1 µM
CCNC(=C[N+](=O)[O-])NC1CCc2sc(NC(=O)C3CC3)c(C(=O)NCC3CC3)c2C1 (stereo not shown) = 1 to 10 µM
CCCNS(=O)(=O)c1c(NC(=O)C2CC2)sc2c1CC(NC(=S)Nc1ccc(OC)cc1)CC2 (stereo not shown) = < 1 µM
CCNc1c(NC2CCc3sc(NC(=O)C4CC4)c(S(=O)(=O)NCC4CC4)c3C2)c(=O)c1=O (stereo not shown) = < 1 µM
Cc1cc(-n2cnnc2N[C@H]2CCc3sc(NC(=O)C4CC4)c(C(=O)NCC4CC4)c3C2)n(C)n1 = 1 to 10 µM
Nc1ncccc1C1CCc2sc(NC(=O)C3CC3)c(C(=O)NCC3CC3)c2C1 (stereo not shown) = < 1 µM
O=C(NCC1CC1)c1c(NC(=O)C2CC2)sc2c1C[C@@H](n1ccnc1Nc1cccnc1)CC2 = < 1 µM
CCNc1nncn1[C@H]1CCc2sc(NC(=O)C3CC3)c(C(=O)NCC3CC3)c2C1 = < 1 µM
Cc1cc(Nc2nncn2[C@H]2CCc3sc(NC(=O)C4CC4)c(C(=O)NCC4CC4)c3C2)n(C2CCOC2)n1 (stereo partly shown) = < 1 µM
